System: SF-268 CNS
procedure_text: NCI tumour cell line growth inhibition, 48 h
TGI for assorted compounds

Solved entries:
>  <compound>
CC1(C)S[C@@H]2[C@H](N3C(=O)c4ccccc4C3=O)CN2[C@H]1NC(=O)N[C@@H]1N2C[C@@H](N3C(=O)c4ccccc4C3=O)[C@H]2SC1(C)C

>  <measured_on>
SF-268 CNS

>  <result>
81.3 µM

$$$$
>  <compound>
O=C1C(=C(C(F)(F)Cl)C(F)(F)Cl)C2CCC1C2 (configuration not stated)

>  <measured_on>
SF-268 CNS

>  <result>
> 6.62 µM

$$$$
>  <compound>
CCCCn1c(CSc2ccc(Cl)cc2)c(C(=O)OCC)c2cc(OC)c(Br)cc21

>  <measured_on>
SF-268 CNS

>  <result>
> 100 µM

$$$$
>  <compound>
Oc1ccc(O)c(-c2cn3c(n2)SCC3)c1

>  <measured_on>
SF-268 CNS

>  <result>
> 100 µM

$$$$
>  <compound>
CC(CC(N)C(=O)O)C(=O)O (configuration not stated)

>  <measured_on>
SF-268 CNS

>  <result>
> 100 µM

$$$$

The compound listed as NC(N)=NS(=O)(=O)c1ccc(N/N=C2/CCOC2=O)cc1 shows TGI equal to > 100 µM

Per the record, C=CCN1/C(=C(\C#N)c2nc3ccccc3[nH]2)Sc2c1nc[nH]c2=O has TGI of > 100 µM

# TGI (compound: O=C1/C(=C/c2ccccc2)CN(C(=O)C(Cl)Cl)C/C1=C\c1ccccc1 ) is 5.2 µM

Value of measured TGI for the entry CN(C)CCCN(CCC1CCCCC1)CCC1CCCCC1 : 18 µM

For COc1ccc(/C=C/C(=O)/C=C/c2ccc(OC)cc2OC)c(OC)c1 the compound record lists TGI as 33.7 µM

Measured TGI of OC1c2ccccc2CCC1CN1CCN(CCOC(c2ccc(F)cc2)c2ccc(F)cc2)CC1 (configuration not stated) : 39 µM

GET /value?item= CSC1(C)C(=O)Nc2c(OCc3ccccc3)cc([N+](=O)[O-])cc21 (configuration not stated) &field=TGI returns > 100 µM

The measurements presented in this section are drawn from PubChem BioAssay (NCI).
